The entries that follow carry IC50 values tested on Serine/threonine-protein kinase pim-2 (Homo sapiens, UniProt Q9P1W9), drawn from several published reports.
Labelling: IC50 reported below 40 nM becomes Satisfied; at or above becomes Not satisfied.

Observe how each entry below is paired with its result.
CCOCCOc1cc(F)c(-c2nc(C(=O)Nc3cnccc3[C@H]3C[C@@H](N)[C@H](O)[C@@H](C)C3)ccc2F)c(F)c1	Satisfied
CC(C)(C)OC(=O)N1CCN(CCNc2ccc3nnn(-c4cccc(OC(F)(F)F)c4)c3n2)CC1	Not satisfied
CC(=O)N1CCCN(c2cncc(-c3cccc(/C=C/C(=O)O)c3)n2)CC1	Not satisfied
C[C@@H]1C[C@H](N)C[C@H](c2ccncc2NC(=O)c2ccc(F)c(-c3c(F)cc(OCC(=O)N(C)C)cc3F)n2)C1	Satisfied

In: I wonder whether O=C(O)/C=C/c1cccc(-c2cncc(N3CCCCCC3)n2)c1 has IC50 below 40 nM. Can you tell?
Out: Not satisfied

In: I wonder whether C[C@H]1C[C@@H](c2ccncc2NC(=O)c2csc(-c3c(F)cccc3F)n2)C[C@@H](N)[C@H]1O has IC50 below 40 nM. Can you tell?
Out: Not satisfied

In: I wonder whether CN1CCOc2c(NCc3ccc(F)cc3)nn3c(-c4cccc(OC(F)(F)F)c4)nnc3c21 has IC50 below 40 nM. Can you tell?
Out: Not satisfied

In: I wonder whether COCCOc1cc(F)c(-c2nc(C(=O)Nc3cnccc3[C@H]3C[C@@H](N)[C@@H](O)[C@@H](C)C3)ccc2F)c(F)c1 has IC50 below 40 nM. Can you tell?
Out: Satisfied
